target: Human KLK1 (Homo sapiens (Human)); test: Determination of the IC50 for KLK1; assay type: biochemical; details: human KLK1, 25° C., substrate H-DVal-Leu-Arg-AFC
Sequence (P06870 25-262): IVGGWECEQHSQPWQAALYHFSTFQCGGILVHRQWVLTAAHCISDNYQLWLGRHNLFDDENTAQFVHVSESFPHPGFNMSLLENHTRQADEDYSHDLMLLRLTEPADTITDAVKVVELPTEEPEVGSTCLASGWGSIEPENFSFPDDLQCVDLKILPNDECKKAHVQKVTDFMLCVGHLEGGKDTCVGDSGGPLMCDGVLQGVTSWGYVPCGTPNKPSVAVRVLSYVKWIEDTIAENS
measure: IC50

Worked examples, 2 molecules total:
smilesStr: Nc1nn(Cc2nc(Cc3ccccc3)no2)cc1C(=O)NCCOc1cccc(Cl)c1
testResult: > 40 µM
--
smilesStr: Nc1nn(Cc2ccc(-c3cccnc3)nc2)cc1C(=O)NCCOc1cccc(Cl)c1
testResult: > 40 µM

Ask | Returns the measured IC50 for the input molecule. Input: Nc1c(C(=O)NCCOc2cccc(Cl)c2)cnn1Cc1ccc2[nH]ncc2c1
Reply | > 40 µM

Ask | What about this molecule? Nc1nn(Cc2ccc(-c3ncccn3)cc2)cc1C(=O)NCCOc1cccc(Cl)c1
Reply | > 40 µM

Ask | What about this molecule? Nc1nn(Cc2ccc(N3CCCC3=O)nc2)cc1C(=O)NCCOc1cccc(Cl)c1
Reply | > 40 µM

Ask | What about this molecule? CNc1nn(Cc2ccc(Cn3ccccc3=O)cc2)cc1C(=O)NCCOc1cccc(Cl)c1
Reply | > 40 µM

Ask | What about this molecule? Nc1nn(Cc2ccc(C(=O)O)cc2)cc1C(=O)NCCOc1cccc(Cl)c1
Reply | > 40 µM

Ask | What about this molecule? Cc1cc(C(=O)NCCOc2cccc(Cl)c2)c(C)n1Cc1csc(-c2ccccc2)n1
Reply | > 10 µM

Ask | What about this molecule? COCc1nn(Cc2ccc(Cn3ccccc3=O)cc2)cc1C(=O)NCCOc1cc(Cl)ccc1F
Reply | > 10 µM

Ask | What about this molecule? O=C(NCCOc1cccc(Cl)c1)c1cn(Cc2ccc(N3CCCC3)nc2)nc1C(F)(F)F
Reply | > 10 µM

Ask | What about this molecule? CN(Cc1ccc(Cn2cc(C(=O)NCCOc3cccc(Cl)c3)c(N)n2)cc1)c1ccccn1
Reply | > 40 µM

Ask | What about this molecule? Nc1nn(Cc2ccc(Cn3ccccc3=O)cc2)cc1C(=O)N[C@H]1CCN(c2cc(Cl)ccn2)C1
Reply | > 40 µM

# credit: patent US10781181B2
